Here, each record is paired with measured inhibition at 20 µM data.
- SYSTEM NAME: UniProt P01116
- TEST NAME: Ras GTP binding domain inhibition assay (labeled GTP)
- EXPERIMENTAL PARAMETERS: 20 μM compound; read-out: % Inhibition at 20 μM KRas wild type

{"columns": ["COMPOUND", "inhibition at 20 µM"],
 "data": [
  ["COc1ccc(-c2csc3c(O)nc(-c4ccccn4)nc23)c(C)c1 [drawing 2881]", "25 to 50%"],
  ["Cc1sc2c(O)nc(-c3ccccn3)nc2c1-c1ccccc1 [drawing 2905]", "1 to 25%"],
  ["Oc1nc(-c2ccccn2)nc2c(-c3ccc4c(c3)CCCO4)csc12 [drawing 2902]", "25 to 50%"],
  ["O=C(CCc1cncnc1)Nc1nc(-c2ccccn2)nc2sccc12 [drawing 2891]", "51 to 75%"],
  ["O=C(O)c1cc2nc(-c3ccccn3)nc(O)c2s1 [drawing 2850]", "51 to 75%"],
  ["Cn1nnc2ccc(-c3csc4c(O)nc(-c5ccccn5)nc34)cc21 [drawing 2861]", "76 to 100%"],
  ["CN(C)Cc1ccc(-c2csc3c(O)nc(-c4ccccn4)nc23)cc1F [drawing 2845]", "51 to 75%"],
  ["O=C(c1csc2c(O)nc(-c3ccccn3)nc12)N1CCN(c2ccccc2O)CC1", "1 to 25%"],
  ["Oc1nc(-c2ccccn2)nc2c(-c3cccc4c3OCO4)csc12 [drawing 2849]", "25 to 50%"],
  ["COc1cccc(-c2csc3c(O)nc(-c4ccccn4)nc23)c1 [drawing 2872]", "51 to 75%"],
  ["Oc1nc(-c2ccccn2)nc2sc3c(c12)CCNC3 [drawing 2851]", "51 to 75%"],
  ["OCC1(c2ccc(-c3csc4c(O)nc(-c5ccccn5)nc34)cc2)CC1 [drawing 2886]", "76 to 100%"],
  ["Oc1nc(-c2ccccn2)nc2sccc12 [drawing 2704]", "25 to 50%"],
  ["CN(C)Cc1ccc(F)c(-c2csc3c(O)nc(-c4ccccn4)nc23)c1 [drawing 2901]", "51 to 75%"],
  ["COc1cc(-c2csc3c(O)nc(-c4ccccn4)nc23)cnc1C(F)(F)F [drawing 2884]", "51 to 75%"],
  ["O=C(c1csc2c(O)nc(-c3ccccn3)nc12)N1CCOC(c2ccc(F)cc2)C1 (stereo not drawn) [drawing 2743]", "51 to 75%"],
  ["O=C(COCc1ccnc(O)c1)Nc1nc(-c2ccccn2)nc2sccc12 [drawing 2857]", "25 to 50%"],
  ["COc1ccc(F)cc1-c1csc2c(O)nc(-c3ccccn3)nc12 [drawing 2874]", "25 to 50%"]
]}

----------
- SYSTEM NAME: KRas G12D/Q61H double mutant (Homo sapiens (Human), UniProt P01116, G12D/Q61H)
- Sequence (P01116-2 other isoform, or with tags, fused parts or gaps G12D/Q61H): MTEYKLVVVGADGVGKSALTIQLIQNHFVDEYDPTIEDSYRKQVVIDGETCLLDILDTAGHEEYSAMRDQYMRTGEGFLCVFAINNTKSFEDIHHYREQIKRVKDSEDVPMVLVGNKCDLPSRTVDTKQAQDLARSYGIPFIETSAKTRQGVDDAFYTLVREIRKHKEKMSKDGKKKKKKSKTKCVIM
- TEST NAME: Ras GTP binding domain inhibition assay (labeled GTP)
- EXPERIMENTAL PARAMETERS: 20 μM compound; KRas G12D/Q61H double mutant; read-out: % Inhibition at 20 μM of K-Ras mutant and wild-type protein, KRas G12D Q61H
Here, each record is paired with measured inhibition at 20 µM data.

{"columns": ["MOLECULE", "inhibition at 20 µM"],
 "data": [
  ["COc1cnc(C(C)(C)N)nc1O [drawing 3491]", "1 to 25%"],
  ["Cc1sc2c(O)nc(-c3ccccn3)nc2c1-c1ccncc1 [drawing 3497]", "51 to 75%"],
  ["COCCNc1nc(-c2cn(C)cn2)nc2sc(-c3ccncc3)c(-c3ccccc3)c12 [drawing 3530]", "76 to 100%"],
  ["Cc1sc2c(O)nc(-c3ccccn3)nc2c1C(=O)O [drawing 3482]", "25 to 50%"],
  ["COc1ccc(-c2nc(CSc3nnc(CC(C)c4ccccc4)o3)cs2)cc1OC (stereo not drawn)", "25 to 50%"],
  ["OCC1(Cc2ccccc2)CCCN1c1nc(-c2ccccn2)nc2c1CCC2 (stereo not drawn)", "25 to 50%"],
  ["Nc1nc(O)c2sc(-c3cccc(C(=O)NC4CCNC4=O)c3)cc2n1 (stereo not drawn) [drawing 3542]", "1 to 25%"],
  ["COC(=O)c1ccc(COC(=O)c2oc3ccccc3c2COC(C)C)o1", "25 to 50%"],
  ["O=c1[nH]c(-c2ccccn2)nc2c([C@@H]3O[C@H](CO)[C@@H](O)[C@H]3O)csc12 [drawing 3527]", "25 to 50%"]
]}

----------
Here, each record is paired with measured inhibition at 20 µM data.
- SYSTEM NAME: KRas G12D mutant protein (Homo sapiens (Human), UniProt P01116, G12D)
- Sequence (P01116-2 other isoform, or with tags, fused parts or gaps G12D): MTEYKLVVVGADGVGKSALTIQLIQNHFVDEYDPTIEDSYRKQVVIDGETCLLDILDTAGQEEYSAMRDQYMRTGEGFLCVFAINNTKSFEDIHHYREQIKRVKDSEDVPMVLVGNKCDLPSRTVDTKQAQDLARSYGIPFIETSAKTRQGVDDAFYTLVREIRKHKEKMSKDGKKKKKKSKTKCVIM
- TEST NAME: Ras GTP binding domain inhibition assay (labeled GTP)
- EXPERIMENTAL PARAMETERS: 20 μM compound; read-out: % Inhibition at 20 μM KRas G12D
ASSAY READOUT: inhibition at 20 µM

{"columns": ["COMPOUND", "ASSAY READOUT", "RESULT"],
 "data": [
  ["COCCCCNC(=O)c1csc2nc(-c3ccccn3)nc(N3CCN(C)CC3)c12 [drawing 2739]", "inhibition at 20 µM", "25 to 50%"],
  ["Oc1nc(-c2ccccn2)nc2c(Br)csc12 [drawing 2673]", "inhibition at 20 µM", "25 to 50%"],
  ["CC(C)(O)c1ccc(-c2csc3c(O)nc(-c4ccccn4)nc23)c(F)c1 [drawing 2880]", "inhibition at 20 µM", "51 to 75%"],
  ["COc1ccc(F)cc1-c1csc2c(O)nc(-c3ccccn3)nc12 [drawing 2874]", "inhibition at 20 µM", "51 to 75%"],
  ["Oc1nc(-c2ccccn2)nc2c(-c3cc(Cl)cc(Cl)c3)csc12 [drawing 2848]", "inhibition at 20 µM", "25 to 50%"]
]}

----------
Here, each record is paired with measured inhibition at 20 µM data.
- SYSTEM NAME: Rho-A (Homo sapiens (Human))
- Sequence (P61586 whole entry): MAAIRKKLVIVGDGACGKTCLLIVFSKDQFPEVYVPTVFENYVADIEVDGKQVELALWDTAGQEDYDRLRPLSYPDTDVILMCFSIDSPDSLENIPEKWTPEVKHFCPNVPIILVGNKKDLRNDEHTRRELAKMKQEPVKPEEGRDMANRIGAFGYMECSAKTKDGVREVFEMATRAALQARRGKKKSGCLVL
- TEST NAME: Rho inhibition assay (labeled GTP)
- Format: binding
- EXPERIMENTAL PARAMETERS: read-out: Rho-A % Inh.
ASSAY READOUT: inhibition at 20 µM

{"columns": ["COMPOUND", "ASSAY READOUT", "RESULT"],
 "data": [
  ["Oc1nc(-c2ccccn2)nc2sccc12 [drawing 3624]", "inhibition at 20 µM", "76 to 100%"],
  ["Nc1nc(O)c2sc(-c3cccc(C(=O)NC4CCNC4=O)c3)cc2n1 (centres unmarked) [drawing 3860]", "inhibition at 20 µM", "1 to 25%"],
  ["Cc1sc2nc(-c3ccccn3)nc(N)c2c1Br [drawing 3803]", "inhibition at 20 µM", "51 to 75%"],
  ["CNC(=O)c1ccc(-c2csc3c(O)nc(-c4ccccn4)nc23)cc1C [drawing 3757]", "inhibition at 20 µM", "51 to 75%"],
  ["Cn1ccnc1-c1nc(NCCOC2CC2)c2c(-c3ccccc3)c(-c3ccccc3)sc2n1 [drawing 3894]", "inhibition at 20 µM", "1 to 25%"]
]}

----------
- SYSTEM NAME: KRas G12D mutant protein (Homo sapiens (Human), UniProt P01116, G12D)
- TEST NAME: Ras GTP binding domain inhibition assay (labeled GTP)
- EXPERIMENTAL PARAMETERS: 20 μM compound; read-out: % Inhibition at 20 μM KRas G12D
Here, each record is paired with measured inhibition at 20 µM data.

{"columns": ["MOLECULE", "SYSTEM NAME", "inhibition at 20 µM"],
 "data": [
  ["O=C(NCCc1cccnc1)c1csc2c(O)nc(-c3ccccn3)nc12 [drawing 2689]", "KRas G12D mutant protein (Homo sapiens (Human), UniProt P01116, G12D)", "51 to 75%"],
  ["O=C(c1csc2c(O)nc(-c3ccccn3)nc12)N1CCOC(c2ccccc2F)C1 (stereo not drawn)", "KRas G12D mutant protein (Homo sapiens (Human), UniProt P01116, G12D)", "51 to 75%"],
  ["COc1ccccc1-c1csc2c(O)nc(-c3ccccn3)nc12 [drawing 2870]", "KRas G12D mutant protein (Homo sapiens (Human), UniProt P01116, G12D)", "51 to 75%"],
  ["O=C(c1csc2c(O)nc(-c3ccccn3)nc12)N1CCN(c2ccncc2)CC1 [drawing 2681]", "KRas G12D mutant protein (Homo sapiens (Human), UniProt P01116, G12D)", "51 to 75%"],
  ["Cc1cnc(-c2ccccn2)nc1NC(=O)C1CCCc2cc(C#N)ccc21 (stereo not drawn) [drawing 2827]", "KRas G12D mutant protein (Homo sapiens (Human), UniProt P01116, G12D)", "25 to 50%"],
  ["O=C(c1csc2c(O)nc(-c3ccccn3)nc12)N1CCC(N2CCCC2=O)CC1 [drawing 2679]", "KRas G12D mutant protein (Homo sapiens (Human), UniProt P01116, G12D)", "51 to 75%"],
  ["Oc1nc(-c2ccccn2)nc2sc3c(c12)CCNC3 [drawing 2851]", "KRas G12D mutant protein (Homo sapiens (Human), UniProt P01116, G12D)", "76 to 100%"],
  ["Oc1nc(-c2ccccn2)nc2c(-c3ccc(F)cc3F)csc12 [drawing 2871]", "KRas G12D mutant protein (Homo sapiens (Human), UniProt P01116, G12D)", "51 to 75%"],
  ["Nc1nc(-c2ccccn2)nc2c(-c3ccccc3)csc12 [drawing 2859]", "KRas G12D mutant protein (Homo sapiens (Human), UniProt P01116, G12D)", "25 to 50%"]
]}

Source listed as patent US10940139B2.
